- target: T1, M7
- T1 construct: also called PD1 mutant M7
- assay method text: ELISA, 1 ug/ml
OD490 listing for selected binders.
Would you mind answering with just the numeric figure?

Here are 2 binders together with their reported answers.
PD1-45D6 (antibody, V domains shown, scFv-phage in the screening ELISA; whole IgG in the other assays) VH: QVQLVESGGGVVQPGRSLRLSCAASGFTFSSYAMHWVRQVPGKGLEWVAVISYDGNDKYYADSVKGRFTISRDNSKNTLYLQMNSLRAEDTAVYYCVPTTFEYWGQGSQVTVSS VL: DIVMTQTPLSLPVTPGEAASISCRSSQSLLDSDDGKTYLDWYLQKPGQSPQLLIYTLSYRASGVPDRFSGSGSGTEFNLRISRVEAEDVGIYYCMQRVEFPFTFGQGTKLDIK ... 0.5
PD1-49A2(A/2B9) (antibody, V domains shown, scFv-phage in the screening ELISA; whole IgG in the other assays; also called 49A2-2B9; 49A2 (2B9)) VH: QVQLVESGGGVVQPGRSLRLSCAASGFTFLRYAMHWVRQAPGKGLEWVAVISYDGRYKYYADSVKGRFTISRDNSKNTLYLQMNSLRAEDTAVYYCTTTTFDSWGQGTLVTVSS VL: DIVMTQTPLSLPVTPGEAASISCRSSQSLLDSEDGNTYLDWYLQKPGQSPQLLIYTLSHRASGVPDRFSGSGSGTDFTLEISRVEAEDVGVYYCMQRRDFPFTFGQGTKVDIK ... 0.083

The record that follows has no OD490 shown yet.
Item under review: PD1-52E8 (antibody, V domains shown, scFv-phage in the screening ELISA; whole IgG in the other assays) VH: QVQLVQSGGNLVQPGRSLRLSCAASGFTFDDYAMHWVRQAPGKGLEWVSGISWNSGTPGYADSVQGRFTISRDNAKNSLYLQMNSLRAEDTAVYYCARGHNYLDSSYYDYWGQGTLVTVSS VL: SYELTQPLSLSVAPGQTARITCSGDALSKEYSYWYQQKPGQAPVLVMYKDSERPSGIPERFSGSSSGTTVTLTISGVQAEDEADYYCQSVDSSDTSVVFGGGTKLTVL . Reported OD490?
1

Cited source for all entries: patent US20190248900A1
